system: OVCAR-8 ovarian; test: NCI-60 one-dose screen, 48 h (100 = growth as untreated, 0 = no growth, -100 = all killed); conditions: 10 µM unless noted
The panel holds about 83,000 compounds, 20% with a hit somewhere; the sample as a whole holds those more often.
Rule for this label: condition met means growth is less than 90%; condition not met means growth is at least 90%.

molecule=CN(C)c1ccc(-c2nc(-c3ccccc3)c(-c3ccccc3)[nH]2)cc1 assay_target="OVCAR-8 ovarian" answer_label="condition not met"
molecule=O=C(Nc1cc(Cl)ccc1O)c1cccc(Nc2ccnc(C(F)(F)F)c2)c1 assay_target="OVCAR-8 ovarian" answer_label="condition met"
molecule=C=CC(=O)Nc1ccc(Nc2nccc(-c3ccc(N4CCCC4)c(C#N)c3)n2)cc1 assay_target="OVCAR-8 ovarian" answer_label="condition met"
molecule=COc1ccc(N2CCC(=S)NC2=S)cc1 assay_target="OVCAR-8 ovarian" answer_label="condition not met"
molecule=C=C1C(=O)O[C@H]2[C@H]1CC/C(Cn1cc(CCC)nn1)=C\CC[C@@]1(C)O[C@@H]21 assay_target="OVCAR-8 ovarian" answer_label="condition met"
molecule=CCOC(=O)c1c(C)nc2ccccc2c1/C=C/c1cccs1 assay_target="OVCAR-8 ovarian" answer_label="condition met"
molecule="CC1=C(CCC(C)NCc2ccc(OCCCN3CCCCC3)cc2)C(C)(C)CCC1 (stereo not drawn)" assay_target="OVCAR-8 ovarian" answer_label="condition met"
molecule=N#Cc1nc(-c2ccccc2)oc1S(=O)(=O)N1CCN(c2ccc(F)cc2)CC1 assay_target="OVCAR-8 ovarian" answer_label="condition met"
molecule="COc1ccc(/C=C/C(c2cc(OC)c(OC)c(OC)c2)n2cncn2)cc1 (stereo not drawn)" assay_target="OVCAR-8 ovarian" answer_label="condition met"
molecule="C=CCOC(=O)C1=C(C)N(CC)C(=O)NC1c1c(Cl)n(C)c2ccccc12 (stereo not drawn)" assay_target="OVCAR-8 ovarian" answer_label="condition not met"
molecule=O=C(O)c1cn(C2CC2)c2cc(N3CCN(C(=O)Nc4nc(-c5ccc(Br)cc5)cs4)CC3)c(F)cc2c1=O assay_target="OVCAR-8 ovarian" answer_label="condition met"
